molecular target: human PD-L1 (human) (UniProt Q9NZQ7); test: flow cytometry, CHO/huPD-L1 cells; vs WT CD80 ECD-Fc (Abcam)
Sequence (Q9NZQ7 19-290): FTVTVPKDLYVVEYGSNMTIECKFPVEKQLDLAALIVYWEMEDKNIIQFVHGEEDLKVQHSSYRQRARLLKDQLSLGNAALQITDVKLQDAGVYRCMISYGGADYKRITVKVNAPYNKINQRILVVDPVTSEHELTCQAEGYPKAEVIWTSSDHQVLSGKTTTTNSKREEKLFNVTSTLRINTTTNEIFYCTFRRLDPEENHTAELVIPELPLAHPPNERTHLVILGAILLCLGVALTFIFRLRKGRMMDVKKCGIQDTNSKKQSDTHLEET
Please assign a class to every record based on measured Fold change to WT CD80, with ranges class A: < 30 fold; class B: ≥ 30 fold and < 60 fold; class C: ≥ 60 fold

{"binder": "variant CD80 IgV-Fc E35D/M47V/V68M/L85Q/K89N (Fc fusion) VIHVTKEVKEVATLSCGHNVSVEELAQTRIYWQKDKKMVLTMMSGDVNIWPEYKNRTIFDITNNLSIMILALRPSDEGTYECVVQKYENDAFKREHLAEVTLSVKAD", "category": "class C"}
{"binder": "variant CD80 IgV-Fc M47V/N48K/K89N (Fc fusion) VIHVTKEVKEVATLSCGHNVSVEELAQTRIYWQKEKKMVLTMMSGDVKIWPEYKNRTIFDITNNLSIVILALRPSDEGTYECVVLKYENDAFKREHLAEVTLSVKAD", "category": "class A"}
{"binder": "variant CD80 IgV-Fc E35D/N48K (Fc fusion) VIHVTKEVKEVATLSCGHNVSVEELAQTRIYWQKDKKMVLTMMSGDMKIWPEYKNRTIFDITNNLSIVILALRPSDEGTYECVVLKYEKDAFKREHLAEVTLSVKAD", "category": "class B"}
{"binder": "variant CD80 IgV-Fc E35D/V68M/L85Q (Fc fusion) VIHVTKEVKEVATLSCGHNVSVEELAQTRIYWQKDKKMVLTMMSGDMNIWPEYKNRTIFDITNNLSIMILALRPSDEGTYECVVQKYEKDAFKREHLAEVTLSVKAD", "category": "class B"}
{"binder": "variant CD80 IgV-Fc E35D/D46V/M47V/N48K/V68M (Fc fusion) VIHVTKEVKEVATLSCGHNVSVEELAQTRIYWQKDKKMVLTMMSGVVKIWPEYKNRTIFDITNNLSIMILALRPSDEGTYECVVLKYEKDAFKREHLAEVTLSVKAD", "category": "class C"}
{"binder": "variant CD80 IgV-Fc D46V/M47L/V68M (Fc fusion) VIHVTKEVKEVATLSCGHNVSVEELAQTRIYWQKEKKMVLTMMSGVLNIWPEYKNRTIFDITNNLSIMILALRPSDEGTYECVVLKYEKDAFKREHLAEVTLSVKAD", "category": "class C"}
{"binder": "variant CD80 IgV-Fc E35D/M47V/N48K/V68M/L85Q (Fc fusion) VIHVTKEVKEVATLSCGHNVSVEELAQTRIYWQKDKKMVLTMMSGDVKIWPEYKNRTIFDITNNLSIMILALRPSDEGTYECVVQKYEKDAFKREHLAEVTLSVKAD", "category": "class C"}
{"binder": "variant CD80 IgV-Fc E35D/M47V/K89N (Fc fusion) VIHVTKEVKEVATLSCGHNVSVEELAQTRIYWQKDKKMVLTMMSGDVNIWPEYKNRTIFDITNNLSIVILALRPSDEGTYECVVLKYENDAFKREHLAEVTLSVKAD", "category": "class B"}
{"binder": "variant CD80 IgV-Fc M47V (Fc fusion) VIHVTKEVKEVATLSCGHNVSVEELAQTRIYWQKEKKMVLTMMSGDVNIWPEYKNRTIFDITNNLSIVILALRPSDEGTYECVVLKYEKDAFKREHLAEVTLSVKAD", "category": "class A"}
{"binder": "variant CD80 IgV-Fc D46V/L85Q (Fc fusion) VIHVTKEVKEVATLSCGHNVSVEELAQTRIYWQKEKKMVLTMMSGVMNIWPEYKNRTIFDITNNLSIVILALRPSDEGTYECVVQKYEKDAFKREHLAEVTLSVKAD", "category": "class A"}
{"binder": "variant CD80 IgV-Fc M47V/V68M (Fc fusion) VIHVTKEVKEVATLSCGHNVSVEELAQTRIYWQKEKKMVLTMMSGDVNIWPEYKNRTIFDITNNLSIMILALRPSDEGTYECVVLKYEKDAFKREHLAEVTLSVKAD", "category": "class B"}
{"binder": "variant CD80 IgV-Fc M47L (Fc fusion) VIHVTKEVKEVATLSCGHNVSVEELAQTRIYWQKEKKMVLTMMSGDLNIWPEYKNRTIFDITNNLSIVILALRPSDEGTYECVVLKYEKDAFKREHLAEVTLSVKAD", "category": "class A"}
{"binder": "variant CD80 IgV-Fc E35D/D46V/M47L/V68M/L85Q (Fc fusion) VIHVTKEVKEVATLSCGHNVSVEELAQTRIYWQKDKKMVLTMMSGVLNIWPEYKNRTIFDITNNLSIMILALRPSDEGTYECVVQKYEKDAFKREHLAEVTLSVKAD", "category": "class C"}
{"binder": "variant CD80 IgV-Fc E35D/N48K/K89N (Fc fusion) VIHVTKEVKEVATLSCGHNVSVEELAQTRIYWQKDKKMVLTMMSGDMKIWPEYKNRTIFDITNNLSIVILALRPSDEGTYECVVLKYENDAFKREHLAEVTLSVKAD", "category": "class B"}
{"binder": "variant CD80 IgV-Fc E35D/K89N (Fc fusion) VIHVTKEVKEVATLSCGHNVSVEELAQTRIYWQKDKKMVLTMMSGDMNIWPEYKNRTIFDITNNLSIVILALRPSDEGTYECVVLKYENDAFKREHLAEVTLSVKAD", "category": "class A"}
